test system: HT-29 colorectal cancer cells; assay: 2D antiproliferation on MSS HT-29 cells, CTG, 5 days; type: cell-based; details: Homo sapiens, 120 h, HT-29 MSS
Quantity Measured: IC50

Check out these entries, answers already filled in.
{"columns": ["Molecule", "Result"],
 "data": [
  ["CCc1c(N2CCN(C(=O)c3ncccc3O)CC2)c(=O)n2nc(-c3cncs3)nc2n1CC(=O)Nc1ccc(C(F)(F)F)cc1Cl [P5]", "> 10 µM"],
  ["CCc1c(N2CCN(C(=O)c3ncnc(C)c3O)CC2)c(=O)n2nc(-c3cc4c(s3)COC4)nc2n1CC(=O)Nc1ccc(Br)c2ccoc12 [P59]", "> 10 µM"],
  ["CCc1c(N2CCN(C(=O)c3ncnc(C)c3O)CC2)c(=O)n2nc(-c3sc(CO)nc3C)nc2n1CC(=O)Nc1ccc(C(F)(F)F)cc1Cl [P34]", "> 10 µM"],
  ["CCc1c(N2CCN(C(=O)c3ncnc(C)c3O)CC2)c(=O)n2nc(-c3cc4c(s3)COC4)nc2n1CC(=O)Nc1ccc(C(F)(F)F)cc1C [P29]", "> 10 µM"],
  ["CCc1c(N2CCN(C(=O)c3ncnc(C)c3O)CC2)c(=O)n2nc(-c3cc4c(s3)COC4)nc2n1CC(=O)Nc1cc(F)c(C(F)(F)F)cc1C [P31]", "> 10 µM"],
  ["CCc1c(N2CCN(C(=O)c3ncccc3O)CC2)c(=O)n2nc(-c3cc4c(s3)COC4)nc2n1CC(=O)Nc1ccc(C(F)(F)F)cc1Cl [P20]", "> 10 µM"],
  ["CCc1c(N2CCN(C(=O)c3ncccc3O)CC2)c(=O)n2nc(-c3cc4c(s3)COC4)nc2n1CC(=O)Nc1ccc(C(F)(F)F)cc1 [P28]", "> 10 µM"],
  ["CCc1c(N2CCN(C(=O)c3ncccc3O)CC2)c(=O)n2nc(C3=CCS(=O)(=O)CC3)nc2n1CC(=O)Nc1ccc(C(F)(F)F)cc1Cl [P6]", "> 10 µM"]
]}

According to the records, this molecule CCc1c(N2CCN(C(=O)c3ncccc3O)CC2)c(=O)n2nc(-c3[nH]nc4sccc34)nc2n1CC(=O)Nc1ccc(C(F)(F)F)cc1Cl [P14] displays IC50 of > 10 µM

According to the records, this molecule CCc1c(N2CCN(C(=O)c3ncccc3O)CC2)c(=O)n2nc(-c3cc4ccncc4s3)nc2n1CC(=O)Nc1ccc(C(F)(F)F)cc1Cl [P17] displays IC50 of > 10 µM

According to the records, this molecule CCc1c(N2CCN(C(=O)c3ncnc(C)c3O)CC2)c(=O)n2nc(-c3cc4c(s3)COC4)nc2n1CC(=O)Nc1ccc(Br)cc1C [P25] displays IC50 of > 10 µM

According to the records, this molecule CCc1c(N2CCN(C(=O)c3ncccc3O)CC2)c(=O)n2nc(-c3cc4cn[nH]c4s3)nc2n1CC(=O)Nc1ccc(C(F)(F)F)cc1Cl [P13] displays IC50 of 9.11 µM

According to the records, this molecule CCc1c(N2CCN(C(=O)c3ncccc3O)CC2)c(=O)n2nc(-c3cc4cnccc4s3)nc2n1CC(=O)Nc1ccc(C(F)(F)F)cc1Cl [P18] displays IC50 of 4.87 µM

====

Measurement record for WRN enzyme (Homo sapiens); quantity recorded: IC50.
Quantity Measured: IC50 (nM)

{"columns": ["Compound", "Readout Unit", "IC50"],
 "data": [
  ["CCc1c(N2CCN(C(=O)c3ncnc(C)c3O)CC2)c(=O)n2nc(-c3cc4c(s3)COC4)nc2n1CC(=O)Nc1ccc(Br)c2ccoc12 [P59]", "nM", 1.5],
  ["CCc1c(N2CCN(C(=O)c3ncccc3O)CC2)c(=O)n2nc(-c3ccc(CO)s3)nc2n1CC(=O)Nc1ccc(C(F)(F)F)cc1Cl [P9]", "nM", 1.2],
  ["CCc1c(N2CCN(C(=O)c3ncccc3O)CC2)c(=O)n2nc(-c3cc4c(s3)COC4)nc2n1CC(=O)Nc1ccc(C(F)(F)F)c2ccsc12 [P58]", "nM", 2.9]
]}

[P] CCc1c(N2CCN(C(=O)c3ncnc(C)c3O)CC2)c(=O)n2nc(-c3cc4c(s3)COC4)nc2n1CC(=O)Nc1ccc(Br)cc1Cl [P24]
[Q] CCc1c(N2CCN(C(=O)c3ncccc3O)CC2)c(=O)n2nc(-c3ccc(COC)s3)nc2n1CC(=O)Nc1ccc(C(F)(F)F)cc1Cl [P10]
# returns the entry with the larger IC50; inputs P and Q Answer with the label corresponding to your selection. Q

Where do the numbers come from? From patent US20260217732A1.
